This collection of values is drawn from ChEMBL document CHEMBL4138238.

- TEST: Selectivity index, ratio of IC50 for African green monkey Vero cells to IC50 for chloroquine-resistant Plasmodium falciparum W2
- Format: toxicity
- TEST_CONDITIONS: read-out: Ratio IC50
ASSAY_READOUT: selectivity ratio

Here's what some known entries look like.
{"ITEM_SMILES": "c1ccc(CNCCCNCc2ccccc2)cc1", "selectivity ratio": "> 7.1"}
{"ITEM_SMILES": "COc1ccc(CNCCCCCCCCNCc2ccc(OC)c(O)c2)cc1O", "selectivity ratio": "> 2.1"}
{"ITEM_SMILES": "COc1ccc(CNCCCNCc2ccc(OC)cc2)cc1", "selectivity ratio": "> 2.8"}
{"ITEM_SMILES": "COc1ccc(CNCCCCCCCCCCCCNCc2ccc(OC)c(O)c2)cc1O", "selectivity ratio": "> 3.5"}

Asked: Data request, read-out selectivity ratio, for `COc1cc(CNCCCCCCNCc2ccc(OCc3ccccc3)c(OC)c2)ccc1OCc1ccccc1`
Given back: > 19

Asked: Data request, read-out selectivity ratio, for `COc1ccc(CNCCCCCCCCCCNCc2ccc(OC)cc2)cc1`
Given back: > 17

Asked: Data request, read-out selectivity ratio, for `COc1cc(CNCCCCCCCCCCNCc2ccc(OCc3ccccc3)c(OC)c2)ccc1OCc1ccccc1`
Given back: > 7.2

Asked: Data request, read-out selectivity ratio, for `COc1ccc(CNCCCCCCCCCCCCNCc2ccc(OC)cc2)cc1`
Given back: > 5.8

Asked: Data request, read-out selectivity ratio, for `COc1ccc(CNCCCCCCNCc2ccc(OC)cc2)cc1`
Given back: 2.5

Asked: Data request, read-out selectivity ratio, for `COc1cc(CNCCCCCCCCCCCCNCc2ccc(OCc3ccccc3)c(OC)c2)ccc1OCc1ccccc1`
Given back: > 5.3

Asked: Data request, read-out selectivity ratio, for `COc1ccc(CNCCCCCCCCCCNCc2ccc(OC)c(O)c2)cc1O`
Given back: > 5.7

Asked: Data request, read-out selectivity ratio, for `COc1ccc(CNCCCCNCc2ccc(OC)cc2)cc1`
Given back: > 2.2

Asked: Data request, read-out selectivity ratio, for `COc1ccc(CNCCCCCCCCNCc2ccc(OC)cc2)cc1`
Given back: > 7.3

Asked: Data request, read-out selectivity ratio, for `COc1cc(CNCCCCNCc2ccc(OCc3ccccc3)c(OC)c2)ccc1OCc1ccccc1`
Given back: > 18.4

Asked: Data request, read-out selectivity ratio, for `COc1cc(CNCCCCCCCCNCc2ccc(OCc3ccccc3)c(OC)c2)ccc1OCc1ccccc1`
Given back: 10.5
